- Tested on: Mycobacterium tuberculosis
- measurement.description: Antimycobacterial activity against Mycobacterium tuberculosis H37Rv CNCTC My 331/88 after 14 days by micromethod
- Assay type: functional
- particulars: H37Rv CNCTC My 331/88, 336 h
# MIC99 listing for each entry below
Express the result in µM but write the number alone.

Task item: So what does the record say about MIC99 for CCCCCCCCCCCCn1nnc(-c2cc([N+](=O)[O-])cc([N+](=O)[O-])c2)n1 ?
Reply: 1

Task item: So what does the record say about MIC99 for COc1cccc(-n2nnnc2SCn2nnc(-c3cc([N+](=O)[O-])cc([N+](=O)[O-])c3)n2)c1 ?
Reply: 0.03

Task item: So what does the record say about MIC99 for Cn1nnnc1SCn1nnc(-c2cc([N+](=O)[O-])cc([N+](=O)[O-])c2)n1 ?
Reply: 2

Task item: So what does the record say about MIC99 for O=[N+]([O-])c1cc(-c2nnn(Cc3cc(F)cc(F)c3)n2)cc([N+](=O)[O-])c1 ?
Reply: 0.25

Task item: So what does the record say about MIC99 for COc1ccc(Cn2nnnc2-c2cc([N+](=O)[O-])cc([N+](=O)[O-])c2)cc1 ?
Reply: 8

Task item: So what does the record say about MIC99 for COc1ccccc1-n1nnnc1Sc1cc([N+](=O)[O-])cc([N+](=O)[O-])c1 ?
Reply: 4

Others:
Task item: So what does the record say about MIC99 for O=[N+]([O-])c1cc(-c2nnn(Cc3ccc(Cl)c(Cl)c3)n2)cc([N+](=O)[O-])c1 ?
Reply: 0.125

Task item: So what does the record say about MIC99 for O=[N+]([O-])c1cc(-c2nnn(Cc3ccc(Br)cc3)n2)cc([N+](=O)[O-])c1 ?
Reply: 0.25

Task item: So what does the record say about MIC99 for O=[N+]([O-])c1cc(-c2nnn(CSc3nnnn3Cc3ccccc3)n2)cc([N+](=O)[O-])c1 ?
Reply: 0.125

Task item: So what does the record say about MIC99 for O=[N+]([O-])c1cc(-c2nnn(Cc3ccc(Cl)cc3)n2)cc([N+](=O)[O-])c1 ?
Reply: 0.25

Task item: So what does the record say about MIC99 for O=[N+]([O-])c1cc(-c2nnnn2Cc2ccc(Cl)cc2)cc([N+](=O)[O-])c1 ?
Reply: 4

----------
- System: Mycobacterium kansasii
- measurement.description: Antimycobacterial activity against Mycobacterium kansasii CNCTC My 235/80 after 7 days by micromethod
- Type: functional
- particulars: CNCTC My 235/80, 168 h
# MIC99 listing for each entry below
Express the result in µM but write the number alone.

Worked cases, answers included:
Task item: So what does the record say about MIC99 for O=[N+]([O-])c1cc(-c2nnn(CSc3nnnn3-c3ccc(Cl)c(Cl)c3)n2)cc([N+](=O)[O-])c1 ?
Reply: 0.06

Task item: So what does the record say about MIC99 for O=[N+]([O-])c1cc(-c2nnn(CCCCSc3nnnn3-c3ccc(Br)cc3)n2)cc([N+](=O)[O-])c1 ?
Reply: 0.5

Task item: So what does the record say about MIC99 for O=[N+]([O-])c1cc(-c2nnn(Cc3ccc(Cl)c(Cl)c3)n2)cc([N+](=O)[O-])c1 ?
Reply: 0.25

Task item: So what does the record say about MIC99 for Cc1ccc(Cn2nnnc2-c2cc([N+](=O)[O-])cc([N+](=O)[O-])c2)cc1 ?
Reply: 1

Task item: So what does the record say about MIC99 for O=[N+]([O-])c1cc(-c2nnn(Cc3ccccc3F)n2)cc([N+](=O)[O-])c1 ?
Reply: 0.5

Continue with the next compound.
Task item: So what does the record say about MIC99 for O=[N+]([O-])c1cc(-c2nnn(Cc3ccc(F)cc3)n2)cc([N+](=O)[O-])c1 ?
Reply: 1

----------
- System: Mycobacterium tuberculosis
- measurement.description: Antimycobacterial activity against Mycobacterium tuberculosis H37Rv CNCTC My 331/88 after 21 days by micromethod
- Assay type: functional
- particulars: H37Rv CNCTC My 331/88, 504 h
measured.attribute: MIC99 (µM)
Express the result in µM but write the number alone.

Worked cases, answers included:
Task item: So what does the record say about MIC99 for O=[N+]([O-])c1cc(-c2nnn(CCSc3nnnn3-c3ccc(Cl)c(Cl)c3)n2)cc([N+](=O)[O-])c1 ?
Reply: 0.25

Task item: So what does the record say about MIC99 for O=[N+]([O-])c1cc(-c2nnnn2Cc2ccccc2)cc([N+](=O)[O-])c1 ?
Reply: 2

Task item: So what does the record say about MIC99 for COc1cccc(-n2nnnc2SCn2nnc(-c3cc([N+](=O)[O-])cc([N+](=O)[O-])c3)n2)c1 ?
Reply: 0.03

Others:
Task item: So what does the record say about MIC99 for O=[N+]([O-])c1cc(-c2nnn(CCCCSc3nnnn3-c3ccc(Cl)c(Cl)c3)n2)cc([N+](=O)[O-])c1 ?
Reply: 0.25

Task item: So what does the record say about MIC99 for CCCn1nnc(-c2cc([N+](=O)[O-])cc([N+](=O)[O-])c2)n1 ?
Reply: 16

Task item: So what does the record say about MIC99 for O=[N+]([O-])c1cc(Sc2nnnn2-c2ccccc2)cc([N+](=O)[O-])c1 ?
Reply: 4

Task item: So what does the record say about MIC99 for O=[N+]([O-])c1cc(-c2nnn(CSc3nnnn3-c3ccccc3)n2)cc([N+](=O)[O-])c1 ?
Reply: 0.25

Task item: So what does the record say about MIC99 for O=[N+]([O-])c1cc(Sc2nnnn2C2CCCCC2)cc([N+](=O)[O-])c1 ?
Reply: 1

Task item: So what does the record say about MIC99 for O=[N+]([O-])c1cc(-c2nnn(Cc3c(F)cccc3Cl)n2)cc([N+](=O)[O-])c1 ?
Reply: 0.5

----------
- Tested on: Klebsiella pneumoniae
- measurement.description: Antibacterial activity against Klebsiella pneumoniae HK11750/08 after 48 hrs by broth microdilution method
- Format: functional
- particulars: HK11750/08, 48 h
measured.attribute: MIC

Worked cases, answers included:
Task item: So what does the record say about MIC for COc1cccc(Cn2nnc(-c3cc([N+](=O)[O-])cc([N+](=O)[O-])c3)n2)c1 ?
Reply: > 500 µM

Task item: So what does the record say about MIC for Cn1nnnc1SCn1nnc(-c2cc([N+](=O)[O-])cc([N+](=O)[O-])c2)n1 ?
Reply: > 500 µM

Task item: So what does the record say about MIC for O=[N+]([O-])c1cc(-c2nnn(Cc3cccc(Br)c3)n2)cc([N+](=O)[O-])c1 ?
Reply: > 500 µM

Task item: So what does the record say about MIC for O=[N+]([O-])c1cc(-c2nnn(Cc3ccc(Br)cc3)n2)cc([N+](=O)[O-])c1 ?
Reply: > 125 µM

Task item: So what does the record say about MIC for COc1ccc(Cn2nnc(-c3cc([N+](=O)[O-])cc([N+](=O)[O-])c3)n2)cc1 ?
Reply: > 500 µM

Task item: So what does the record say about MIC for Cc1ccc(Cn2nnc(-c3cc([N+](=O)[O-])cc([N+](=O)[O-])c3)n2)cc1 ?
Reply: > 500 µM

Task item: So what does the record say about MIC for CCCCCCCCCCCCn1nnc(-c2cc([N+](=O)[O-])cc([N+](=O)[O-])c2)n1 ?
Reply: > 250 µM

Task item: So what does the record say about MIC for O=[N+]([O-])c1cc(-c2nnn(CSc3nnnn3-c3ccc(Cl)c(Cl)c3)n2)cc([N+](=O)[O-])c1 ?
Reply: > 125 µM

Continue with the next compound.
Task item: So what does the record say about MIC for O=[N+]([O-])c1cc(-c2nnn(CSc3nnnn3-c3ccc(Cl)cc3)n2)cc([N+](=O)[O-])c1 ?
Reply: > 125 µM

----------
# MIC99 listing for each entry below
- System: Mycobacterium avium
- measurement.description: Antimycobacterial activity against Mycobacterium avium CNCTC My 330/80 after 14 days by micromethod
- Type: functional
- particulars: CNCTC My 330/80, 336 h
Express the result in µM but write the number alone.

Task item: So what does the record say about MIC99 for O=[N+]([O-])c1cc(-c2nnn(Cc3ccc(F)cc3)n2)cc([N+](=O)[O-])c1 ?
Reply: 8

Others:
Task item: So what does the record say about MIC99 for O=[N+]([O-])c1cc(-c2nnn(Cc3cc(F)cc(F)c3)n2)cc([N+](=O)[O-])c1 ?
Reply: 8

Task item: So what does the record say about MIC99 for O=[N+]([O-])c1cc(-c2nnn(CSc3nnnn3C3CCCCC3)n2)cc([N+](=O)[O-])c1 ?
Reply: 8

----------
- Test system: Klebsiella pneumoniae
- measurement.description: Antibacterial activity against Klebsiella pneumoniae HK11750/08 after 48 hrs by broth microdilution method
- Type: functional
- particulars: HK11750/08, 48 h
# MIC listing for each entry below

Task item: So what does the record say about MIC for O=[N+]([O-])c1cc(-c2nnn(Cc3ccc(F)cc3)n2)cc([N+](=O)[O-])c1 ?
Reply: > 500 µM

Task item: So what does the record say about MIC for COc1cccc(-n2nnnc2SCn2nnc(-c3cc([N+](=O)[O-])cc([N+](=O)[O-])c3)n2)c1 ?
Reply: > 125 µM

Task item: So what does the record say about MIC for Cc1ccc(Cn2nnnc2-c2cc([N+](=O)[O-])cc([N+](=O)[O-])c2)cc1 ?
Reply: 500 µM

Continue with the next compound.
Task item: So what does the record say about MIC for O=[N+]([O-])c1cc(-c2nnn(Cc3ccc(Cl)cc3)n2)cc([N+](=O)[O-])c1 ?
Reply: > 500 µM
